procedureText: In vitro cytotoxicity against uninfected ATH-8 (human T-cell) cell line.
Type: functional
conditionInfo: read-out: CD50 (the source's name)
For each record, write down the corresponding CC50.

{"smilesStructure": "Nc1ncnc2c1ncn2[C@H]1CC[C@@H](CO)O1", "CC50": "> 200 µM"}

Items follow; give CC50 for each.
1. Cc1cn([C@H]2CO[C@@H](CO)C2)c(=O)[nH]c1=O
2. Nc1ncnc2c1ncn2[C@H]1CO[C@@H](CO)C1
3. Nc1nc(O)c2ncn([C@H]3CO[C@@H](CO)C3)c2n1
4. Nc1nc(O)c2ncn([C@H]3CC[C@@H](CO)O3)c2n1
5. OC[C@H]1C[C@@H](n2cnc3c(O)ncnc32)CO1
6. Nc1ccn([C@H]2CO[C@@H](CO)C2)c(=O)n1

1. > 100 µM
2. > 100 µM
3. > 500 µM
4. > 200 µM
5. > 100 µM
6. > 100 µM

Cited source: ChEMBL document CHEMBL1126179
